Target: T1, human IL-12 (human, UniProt P29459 23-219; P29460 23-328)
T1 construct: recombinant human IL-12 heterodimer (p35/p40, disulfide-linked); also called hIL-12; rhIL-12
T1 sequence (looked up) 1: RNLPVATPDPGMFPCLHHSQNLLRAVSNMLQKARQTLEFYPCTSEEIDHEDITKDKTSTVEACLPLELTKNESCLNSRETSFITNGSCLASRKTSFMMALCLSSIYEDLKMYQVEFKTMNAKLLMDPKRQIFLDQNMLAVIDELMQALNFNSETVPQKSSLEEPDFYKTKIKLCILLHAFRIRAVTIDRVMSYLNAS
T1 sequence (looked up) 2: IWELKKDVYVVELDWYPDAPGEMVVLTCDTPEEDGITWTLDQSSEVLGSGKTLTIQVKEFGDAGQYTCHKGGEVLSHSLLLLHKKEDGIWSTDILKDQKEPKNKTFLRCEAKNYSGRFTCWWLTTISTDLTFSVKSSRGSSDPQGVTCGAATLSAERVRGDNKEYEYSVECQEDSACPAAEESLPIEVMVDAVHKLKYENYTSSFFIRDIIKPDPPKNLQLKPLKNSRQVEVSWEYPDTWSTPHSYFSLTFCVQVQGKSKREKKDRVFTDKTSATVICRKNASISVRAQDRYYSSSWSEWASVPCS
Assay: SPR (BIAcore), IL-12 chip
Kindly note that classification relies on koff with these boundaries: lower bin (below 0.0007 s⁻¹), middle bin (0.0007 s⁻¹ to below 0.004 s⁻¹), upper bin (0.004 s⁻¹ or more)

binder: 144-F1 (scFv, V domains shown, scFv) VH: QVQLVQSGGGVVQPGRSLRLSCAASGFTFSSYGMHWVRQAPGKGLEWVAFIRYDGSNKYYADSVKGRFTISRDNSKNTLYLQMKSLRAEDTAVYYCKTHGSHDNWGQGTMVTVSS VL: SYVLTQPPSVSGTPGQRVTISCSGGRSNIGSNTVKWYQQLPGTAPKLLIYGNDQRPSGVPDRFSGSKSGTSASLAITGVQAEDEADYYCQSYDRGHHYTTFFGTGTKVTVL
label: lower bin
--
binder: 136-15 (scFv, V domains shown, scFv) VH: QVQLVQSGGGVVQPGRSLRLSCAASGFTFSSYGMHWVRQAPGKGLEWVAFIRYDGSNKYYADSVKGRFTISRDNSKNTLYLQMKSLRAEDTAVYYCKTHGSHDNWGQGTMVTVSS VL: SYVLTQPPSVSGTPGQRVTISCSGSRSNIGSNTVKWYQQLPGTAPKLLIYGNDQRPSGVPDRFSGSKSGTSASLAITGVQAEDEADYYCQTYDKGFTGSSVFGTGTKVTVLG
label: middle bin
--
binder: M2 C3 (scFv, V domains shown, scFv) VH: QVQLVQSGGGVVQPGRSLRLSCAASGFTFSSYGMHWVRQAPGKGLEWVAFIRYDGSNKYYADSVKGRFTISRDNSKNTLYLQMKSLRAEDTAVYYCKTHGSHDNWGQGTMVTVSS VL: SYVLTQPPSVSGTPGQRVTISCSGGRSNIGSNTVKWYQQLPGTAPKLLIYGNDQRPSGVPDRFSGSKSGTSASLAITGVQAEDEADYYCQSYDTGLTGSRVFGTGTKVTVL
label: upper bin
--
binder: 101-9 (scFv, V domains shown, scFv) VH: QVQLVQSGGGVVQPGRSLRLSCAASGFTFSSYGMHWVRQAPGKGLEWVAFIRYDGSNKYYADSVKGRFTISRDNSKNTLYLQMKSLRAEDTAVYYCTTHGSYDYWGQGTMVTVSS VL: SYVLTQPPSVSGTPGQRVTISCSGGRSNIGSNTVKWYQQLPGTAPKLLIYGNDQRPSGVPDRFSGSKSGTSASLAITGVQAEDEADYYCQSYDSSLTGSRVFGTGTKVTVL
label: upper bin
--
binder: A10 (scFv, V domains shown, scFv) VH: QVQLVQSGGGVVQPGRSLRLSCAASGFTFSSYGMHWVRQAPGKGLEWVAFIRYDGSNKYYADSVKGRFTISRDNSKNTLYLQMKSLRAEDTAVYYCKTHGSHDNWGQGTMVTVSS VL: SYVLTQPPSVSGTPGQRVTISCSGGRSNIGSNTVKWYQQLPGTAPKLLIYGNDQRPSGVPDRFSGSKSGTSASLAITGVQAEDEADYYCQSYDRGNSPATVFGTGTKVTVL
label: middle bin
--
binder: 103-4 (scFv, V domains shown, scFv) VH: QVQLVQSGGGVVQPGRSLRLSCAASGFTFSSYGMHWVRQAPGKGLEWVAFIRYDGSNKYYADSVKGRFTISRDNSKNTLYLQMKSLRAEDTAVYYCTTHGSHDNWGQGTMVTVSS VL: SYVLTQPPSVSGTPGQRVTISCSGGRSNIVSNTVKWYQQLPGTAPKLLIYGNDQRPSGVPDRFSGSKSGTSASLAITGVQAEDEADYYCQSYDRGFTGARVFGTGTKVTVL
label: lower bin
--
binder: 26-1 (scFv, V domains shown, scFv; also called 26-1 (2, 3)) VH: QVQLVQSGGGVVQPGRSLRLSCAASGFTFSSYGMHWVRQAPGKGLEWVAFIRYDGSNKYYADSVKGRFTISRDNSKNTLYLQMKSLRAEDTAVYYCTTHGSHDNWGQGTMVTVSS VL: SYVLTQPPSVSGTPGQRVTISCSGGRSNIGSNTVKWYQQLPGTAPKLLIYGNDQRPSGVPDRFSGSKSGTSASLAITGVQAEDEADYYCQSYDSSLWGSRVFGTGTKVTVL
label: upper bin
--
binder: 31-B5 (scFv, V domains shown, scFv) VH: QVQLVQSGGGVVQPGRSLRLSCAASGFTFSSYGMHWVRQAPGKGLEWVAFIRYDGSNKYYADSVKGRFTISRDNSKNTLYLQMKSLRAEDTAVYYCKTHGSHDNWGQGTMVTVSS VL: SYVLTQPPSVSGTPGQRVTISCSGGRSNIGSNTVKWYQQLPGTAPKLLIYGNDQRPSGVPDRFSGSKSGTSASLAITGVQAEDEADYYCQSYDRGTHPSISFGTGTKVTVL
label: lower bin
--
binder: 103-14 & 9 (scFv, V domains shown, scFv) VH: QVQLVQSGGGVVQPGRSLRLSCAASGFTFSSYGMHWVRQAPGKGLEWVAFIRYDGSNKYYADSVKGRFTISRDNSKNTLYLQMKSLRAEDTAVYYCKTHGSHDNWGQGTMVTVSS VL: SYVLTQPPSVSGTPGQRVTISCSGGRSNIGSNTVKWYQQLPGTAPKLLIYGNDQRPSGVPDRFSGSKSGTSASLAITGVQAEDEADYYCQSYDRGFTGSMVFGTGTKVTVL
label: lower bin
